Sourced from patent US11999728B2

- METHOD_NOTES: Pharmacokinetic Determination (Mouse PK)
- Type: in vivo, female CD-1 mice
- ASSAY_CONTEXT: female, CD-1, plasma, IV, 3.0 mg/kg
Catalogue of half-life values

# MOLECULE, half-life / h
measured = [
    ("C[C@@H]1Cc2c([nH]c3ccccc23)[C@@H](c2c(F)cc(N[C@H]3CCN(CCCF)C3)cc2F)N1C12CC(C1)C2", 6.58),
    ("C[C@@H]1Cc2c([nH]c3ccccc23)[C@@H](c2ccc(NC3CN(CCCF)C3)cc2)N1C12CC(CO)(C1)C2 (single isomer, unassigned)", 7.08),
    ("C[C@@H]1Cc2c([nH]c3ccccc23)[C@@H](c2ccc(O[C@H]3CCN(CCCF)C3)nc2)N1C12CC(C1)C2 (single isomer, unassigned)", 2.19),
]

###

- Tested on: MCF7
- METHOD_NOTES: Breast Cancer Cell Proliferation Assay (MCF-7), Cell Titer-Glo
- Format: cell-based
- ASSAY_CONTEXT: Homo sapiens, MCF7, 120 h, MCF7 cells, 5 days of compound exposure
- Experimental: Breast Cancer Cell Proliferation Assay (MCF-7) MCF7 was expanded and maintained in the medium (Phenol red free DMEM/F12 (Hyclone SH30272.01) NEAA (Gibco11140-050) Na-pyruvate (Gibco 11360-070) and Re-stripped Charcoal stripped FBS (Gemini 100-119)). […] After 5 days of compound exposure, Cell Titer-Glo reagent was added to the cells and the relative luminescence units (RLUs) of each well was determined. […]
pIC50: −log10 of the molar value.
REPORTED_PROPERTY: pIC50

# COMPOUND, VALUE_MEASURED
data = [
    ("C[C@@H]1Cc2c([nH]c3ccccc23)[C@@H](c2c(F)cc(NC3CN(CCF)C3)cc2F)N1C12CC(C1)C2", "≥ 7.60"),
    ("C[C@@H]1Cc2c([nH]c3ccccc23)[C@@H](c2ccc(N[C@H]3CCN(CCCF)C3)nc2)N1C12CC(C1)C2", "≥ 7.60"),
    ("C#CCN1CC(Nc2ccc([C@@H]3c4[nH]c5ccccc5c4C[C@@H](C)N3C34CC(C3)C4)cc2)C1", "≥ 7.60"),
    ("C[C@]12CC[C@@H]3c4ccc(O)cc4C[C@@H](CCCCCCCCC[S+]([O-])CCCC(F)(F)C(F)(F)F)[C@H]3[C@@H]1CC[C@@H]2O (stereo partly drawn) [fulvestrant, reference compound]", "≥ 7.60"),
    ("C[C@@H]1Cc2c([nH]c3ccccc23)[C@@H](c2ccc(O[C@@H]3CCN(CCCF)C3)cc2)N1C12CC(C1)C2 (single isomer, unassigned)", "6.60 to 7.60"),
    ("C[C@@H]1Cc2c([nH]c3ccccc23)[C@@H](c2ccc(NC3CN(CCCF)C3)cc2F)N1C12CC(C1)C2", "≥ 7.60"),
]

###

- Test system: MCF7
- METHOD_NOTES: Breast Cancer Cell Proliferation Assay (MCF-7), Cell Titer-Glo
- Assay type: cell-based
- ASSAY_CONTEXT: Homo sapiens, MCF7, 120 h, MCF7 cells, 5 days of compound exposure
pIC50: −log10 of the molar value.
This listing pairs compounds with measured pIC50.
REPORTED_PROPERTY: pIC50

# SMILES_NOTATION, VALUE_MEASURED
rows = [
    ("C[C@@H]1Cc2c([nH]c3ccccc23)[C@@H](c2ccc(NC3CN(CCCF)C3)cc2)N1C12CC(C1)C2", "≥ 7.60"),
    ("C[C@@H]1Cc2c([nH]c3ccccc23)[C@@H](c2ccc(N3CC(NCCCF)C3)cn2)N1C12CC(C1)C2", "≤ 6.60"),
    ("COc1cc(NC2CN(CCCF)C2)cc(F)c1[C@@H]1c2[nH]c3ccccc3c2C[C@@H](C)N1C12CC(C1)C2", "≥ 7.60"),
    ("C[C@@H]1Cc2c([nH]c3ccccc23)[C@@H](c2c(F)cc(OC3CN(CCCF)C3)cc2F)N1C12CC(C1)C2", "≥ 7.60"),
]
